Reference source for all entries: patent US5863950A

- Experimental system: HIV-1 protease (Human immunodeficiency virus type 1 group M subtype B)
- Construct: purified HIV-1 protease
- Test description: biochemical
- Assay type: biochemical
- Measurement context: 0.5M NaCl, 50 mM MES pH 5.6, 2% DMSO, 37° C., 200 μM substrate
pKi: −log10 of the molar value.
Quantity name: pKi

Guide cases for pKi, answers given:
[
  {
    "Compound": "CC(C)(C)N(CCO)C(=O)c1ccccc1CCC(O)Cc1ccccc1C(=O)N(CCOc1ccncc1)C(C)(C)c1ccccc1 (centres unmarked) [Example 83]",
    "pKi": 6.13
  },
  {
    "Compound": "CCC1(N(CCO)C(=O)c2ccccc2CCC(O)Cc2ccccc2C(=O)N(CCC(O)CO)C(C)(C)c2ccccc2)CCCC1 (centres unmarked) [Example 100]",
    "pKi": 8.15
  },
  {
    "Compound": "CC(C)(C)N(CCO)C(=O)c1ccccc1CC(O)CSc1ccccc1C(=O)N(CCO)C(C)(C)C (centres unmarked) [Example 85]",
    "pKi": 4.74
  },
  {
    "Compound": "CCc1ccc(CC(O)CCc2ccccc2C(=O)N(CCO)C(C)(C)c2ccccc2)c(C(=O)N(CCO)C(C)(C)c2ccccc2)c1 (centres unmarked) [Example 89]",
    "pKi": 7.77
  },
  {
    "Compound": "CC(C)(C)N(CCO)C(=O)c1ccccc1CCC(O)Cc1ccccc1C(=O)N(CCO)C(C)(C)c1ccncc1 (centres unmarked) [Example 77]",
    "pKi": 6.00
  },
  {
    "Compound": "CC(C)(C)N(CCO)C(=O)c1ccccc1CC(O)C(O)Cc1ccccc1C(=O)N(CCO)C(C)(C)C (centres unmarked) [Example 58]",
    "pKi": 5.11
  },
  {
    "Compound": "CCC1(N(CCO)C(=O)c2ccccc2CCC(O)Cc2ccc(C)cc2C(=O)N(CCO)C2(c3ccccc3)CCCC2)CCCC1 (centres unmarked) [Example 94]",
    "pKi": 9.26
  },
  {
    "Compound": "Cc1ccc(CC(O)CCc2ccccc2C(=O)N(CCO)C(C)(C)c2ccccc2)c(C(=O)N(CCO)C(C)(C)c2ccccc2)c1 (centres unmarked) [Example 80]",
    "pKi": 7.92
  }
]

(1) CCCC(CC)(CC)N(CCO)C(=O)c1ccccc1CC(O)CCc1ccccc1C(=O)N(CCO)C(C)(C)C (centres unmarked) [Example 92]
(2) CC(C)(C)N(CCO)C(=O)c1ccccc1CCC(O)Cc1ccccc1C(=O)N(Cc1ccccc1)C(C)(C)C (centres unmarked) [Example 64]
(3) CC(C)(C)NC(=O)c1c(CCC(O)Cc2ccccc2C(=O)N(Cc2ncc[nH]2)C(C)(C)C)ccc2ccccc12 (centres unmarked) [Example 12]
(4) CCC1(N(CCO)C(=O)c2ccccc2CCC(O)Cc2ccc(C)cc2C(=O)N(CCOC(=O)[C@@H](N)C(C)C)C(C)(C)c2ccccc2)CCCC1 (some centres unmarked) [Example 114]
(5) CCC1(N(CCO)C(=O)c2ccccc2CCC(O)Cc2ccccc2C(=O)N(CCO)C(C)(C)c2ccccc2)CCCC1 (centres unmarked) [Example 82]
Sort the compounds on pKi; start with the lowest figure. Please, when replying, give the labels in the order that was requested.
2, 3, 4, 1, 5
(2: 5.10, 3: 6.10, 4: 6.64, 1: 7.06, 5: 7.77)
